Where these numbers come from: ChEMBL document CHEMBL5365549

# test.details: Inhibition of rat brain cortical membrane GABA alpha receptor by TBPS binding assay
# Format: cell membranes, Cortex
assay.endpoint: IC50 (nM)
Return type: number; implicit unit nM.

Solved entries (count: 5):
CC(=O)[C@H]1CC[C@H]2[C@@H]3CC[C@H]4C[C@](C)(O)CC[C@@H]4[C@H]3CC[C@]12C
93
COC[C@@]1(O)CC[C@H]2[C@H](CC[C@@H]3[C@@H]2CC[C@]2(C)[C@@H](C(=O)CO)CC[C@@H]32)C1
170
C[C@@]1(O)CC[C@H]2[C@H](CC[C@@H]3[C@@H]2CC[C@]2(C)[C@@H](C(=O)CO)CC[C@@H]32)C1
86
COC[C@@]1(O)CC[C@H]2[C@@H](CC[C@@H]3[C@@H]2CC[C@]2(C)[C@@H](C(=O)CO)CC[C@@H]32)C1
94
COC[C@@]1(O)CC[C@H]2[C@H](CC[C@@H]3[C@@H]2CC[C@]2(C)[C@@H](C(C)=O)CC[C@@H]32)C1
41

Turning now to a further record.
Fill blank: measured IC50 of the compound `CC(=O)[C@H]1CC[C@H]2[C@@H]3CC[C@@H]4C[C@@](O)(C(F)F)CC[C@@H]4[C@H]3CC[C@]12C` is ____.
33
